# System: KRAS PDC tumor spheroids (HUVEC+MSC), viability;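 also: spheroids exposed to compounds for seven days before readout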
# test-protocol: Anticancer human tumor 254851-301-R-J1-PDC patient-derived colon carcinoma cell line growth inhibition [KRAS2]
# conditions-used: curve of first compound; second compound 0.316 µM
Can you tell me IC50 for the items I'm about to list?
One number for each entry, in nM.

// below: answered compounds
>  <compound>
COc1cc2nccc(Oc3ccc(NC(=O)C4(C(=O)Nc5ccc(F)cc5)CC4)cc3)c2cc1OC + CC1OCC2(CCN(c3cnc(Sc4ccnc(N)c4Cl)c(N)n3)CC2)C1N

>  <recorded-metric>
IC50

>  <unit-of-measure>
nM

>  <recorded-result>
9860

$$$$
>  <compound>
CC(=O)OC12COC1CC(O)C1(C)C(=O)C(O)C3=C(C)C(OC(=O)C(O)C(NC(=O)OC(C)(C)C)c4ccccc4)CC(O)(C(OC(=O)c4ccccc4)C21)C3(C)C (configuration not stated) + COc1cc2nc(C)nc(NC(C)c3cc(N)cc(C(F)(F)F)c3)c2cc1OC1CCOC1

>  <recorded-metric>
IC50

>  <unit-of-measure>
nM

>  <recorded-result>
143

$$$$
>  <compound>
CC(=O)Nc1cccc(-n2c(=O)n(C3CC3)c(=O)c3c(Nc4ccc(I)cc4F)n(C)c(=O)c(C)c32)c1 + CC1OCC2(CCN(c3cnc(Sc4ccnc(N)c4Cl)c(N)n3)CC2)C1N

>  <recorded-metric>
IC50

>  <unit-of-measure>
nM

>  <recorded-result>
3.45

$$$$

Now, please, on to the next compound.
Lookup: Give IC50; test system KRAS PDC tumor spheroids (HUVEC+MSC), viability; compound CCN1CCN(Cc2ccc(Nc3ncc(F)c(-c4cc(F)c5nc(C)n(C(C)C)c5c4)n3)nc2)CC1 + CNCc1ccccc1-c1csc(C(C)Nc2nc(C)nc3cc(OC)c(OC)cc23)c1;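 also: spheroids exposed to compounds for seven days before readout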
Found: 514
